Recorded values, source patent US12152038B2.

Below, each of the molecules is paired with its reported efflux ratio at 1 h, 10 μM value.
Molecular target: MDR1 (P-glycoprotein) (Homo sapiens, UniProt P08183)
Construct: host or cells: MDCK (MDR1-MDCK; wild-type MDCK as comparator)
Sequence (P08183 whole entry): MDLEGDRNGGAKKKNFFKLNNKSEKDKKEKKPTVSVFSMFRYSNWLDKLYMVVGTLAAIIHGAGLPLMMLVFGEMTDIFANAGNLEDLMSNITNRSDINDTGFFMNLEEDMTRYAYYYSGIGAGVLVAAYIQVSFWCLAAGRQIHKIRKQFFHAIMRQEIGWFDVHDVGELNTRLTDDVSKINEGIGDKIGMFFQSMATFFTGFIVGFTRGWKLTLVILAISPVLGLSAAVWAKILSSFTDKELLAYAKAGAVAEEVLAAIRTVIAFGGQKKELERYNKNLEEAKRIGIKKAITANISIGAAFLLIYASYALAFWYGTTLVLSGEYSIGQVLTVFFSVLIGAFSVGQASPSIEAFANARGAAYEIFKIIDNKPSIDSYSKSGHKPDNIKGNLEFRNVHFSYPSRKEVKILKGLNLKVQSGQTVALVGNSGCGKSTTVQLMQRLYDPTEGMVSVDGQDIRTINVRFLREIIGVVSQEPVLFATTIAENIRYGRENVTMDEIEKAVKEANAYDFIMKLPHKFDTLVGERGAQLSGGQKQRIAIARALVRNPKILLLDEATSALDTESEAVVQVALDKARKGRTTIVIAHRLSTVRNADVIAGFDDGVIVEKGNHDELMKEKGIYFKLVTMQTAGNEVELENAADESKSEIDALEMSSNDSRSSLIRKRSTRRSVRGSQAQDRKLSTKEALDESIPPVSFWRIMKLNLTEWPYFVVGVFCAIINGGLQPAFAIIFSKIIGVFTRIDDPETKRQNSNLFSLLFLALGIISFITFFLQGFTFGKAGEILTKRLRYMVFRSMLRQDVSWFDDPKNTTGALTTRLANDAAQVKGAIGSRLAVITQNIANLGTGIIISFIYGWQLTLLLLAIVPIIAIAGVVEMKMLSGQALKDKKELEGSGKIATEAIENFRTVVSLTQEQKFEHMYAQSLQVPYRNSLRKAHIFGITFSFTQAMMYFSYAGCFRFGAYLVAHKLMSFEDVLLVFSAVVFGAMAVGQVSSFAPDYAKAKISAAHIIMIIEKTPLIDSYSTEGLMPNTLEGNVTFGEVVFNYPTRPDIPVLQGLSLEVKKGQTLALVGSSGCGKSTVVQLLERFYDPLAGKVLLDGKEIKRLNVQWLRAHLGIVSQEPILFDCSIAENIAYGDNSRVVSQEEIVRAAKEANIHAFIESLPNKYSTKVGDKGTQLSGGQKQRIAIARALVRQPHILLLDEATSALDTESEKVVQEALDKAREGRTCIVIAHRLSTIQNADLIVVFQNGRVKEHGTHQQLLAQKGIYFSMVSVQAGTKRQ
Experiment: MDR1-MDCK permeability and efflux assay (Papp, efflux ratio, effective efflux ratio)
Type: in vitro ADME
Settings: dog, MDCK-MDR1, pH 7.4, ER(MDR1-MDCK)/ER(wild-type MDCK); read-out: EER (Effective Efflux Ratio)

Consider the worked cases shown below.
In [3]: df
Out[3]:
                                   molecule               quantity_name  observed_value
0  Cc1nccnc1N1CC2(CN(C(=O)N3c4ccc(Cl)cc4OCC3C)C2)C1 (single isomer, unassigned) [20-10-A]  efflux ratio at 1 h, 10 μM          1 to 2
1  Cc1cncc(N2CC3(CN(C(=O)N4CCOc5cc(Cl)ccc54)C3)C2)n1 [1-22]  efflux ratio at 1 h, 10 μM          1 to 2
2  CC1COc2cc(Cl)ccc2N1C(=O)N1CC2(C1)CN(c1nn(C)c3ncccc13)C2 (single isomer, unassigned) [20-15-B]  efflux ratio at 1 h, 10 μM          1 to 2
3  COc1ccnc(N2CC3(CN(C(=O)N4c5ccc(Cl)cc5OCC4C)C3)C2)c1 (single isomer, unassigned) [20-8-B]  efflux ratio at 1 h, 10 μM             < 1
4  CC1COc2cc(Cl)ccc2N1C(=O)N1CC2(C1)CN(c1ncccn1)C2 (single isomer, unassigned) [1-83-B]  efflux ratio at 1 h, 10 μM          1 to 2
5  Cc1nccc(N2CC3(CN(C(=O)N4c5ccc(Cl)cc5OCC4C)C3)C2)n1 (stereo not drawn) [21-8]  efflux ratio at 1 h, 10 μM          2 to 3
6  O=C(N1CC2(C1)CN(c1ccccn1)C2)N1CCC(O)c2cc(Cl)ccc21 (single isomer, unassigned) [13-2-B]  efflux ratio at 1 h, 10 μM             > 3
7  COc1ccnc(N2CC3(CN(C(=O)N4c5ccc(Cl)cc5OCC4C)C3)C2)n1 (stereo not drawn) [20-9]  efflux ratio at 1 h, 10 μM             < 1

Identify the reported efflux ratio at 1 h, 10 μM for the following entry. O=C(N1CC2(C1)CN(c1cnccn1)C2)N1CCOc2cc(Cl)ccc21 [8-3]
1 to 2

* * *

Experiment: Wild-type MDCK permeability and efflux assay (Papp, efflux ratio)
Assay type: in vitro ADME
Conditions: dog, pH 7.4; Papp B>A/Papp A>B, wild-type MDCK cells; read-out: ER WT (Efflux Ratio)
Experimental: The MDR1-MDCK effective efflux assay was performed as described in the BioFocus Standard Operating Procedure, ADME-SOP-56. […] Incubations were performed at 37° C., with samples removed from both donor and acceptor chambers at T=0 and 1 hour and compound analysed by mass spectrometry (LC-MS/MS) including an analytical internal standard. […] Efflux ratios (Papp B>A/Papp A>B) were calculated for each compound from the mean Papp values in each direction for both wild-type and MDR1-MDCK cells. […]
QUANTITY NAME: efflux ratio at 1 h, 10 μM

Consider the worked cases shown below.
>>> print(df.to_string())
                                   molecule  observed_value
0  O=C(N1CC2(C1)CN(c1cc(F)ccn1)C2)N1CCOc2cc(Cl)ccc21 [1-70]          1 to 2
1  CC1COc2cc(Cl)c(F)cc2N1C(=O)N1CC2(C1)CN(c1ncccn1)C2 (single isomer, unassigned) [19-2-B]          1 to 2

Identify the reported efflux ratio at 1 h, 10 μM for the following entry. O=C(N1CC2(C1)CN(c1cccnc1)C2)N1CCOc2cc(Cl)ccc21 [1-72]
< 1

* * *

Biological target: human Oxytocin Receptor (hOTR) (Homo sapiens, UniProt P30559)
Sequence (P30559 whole entry): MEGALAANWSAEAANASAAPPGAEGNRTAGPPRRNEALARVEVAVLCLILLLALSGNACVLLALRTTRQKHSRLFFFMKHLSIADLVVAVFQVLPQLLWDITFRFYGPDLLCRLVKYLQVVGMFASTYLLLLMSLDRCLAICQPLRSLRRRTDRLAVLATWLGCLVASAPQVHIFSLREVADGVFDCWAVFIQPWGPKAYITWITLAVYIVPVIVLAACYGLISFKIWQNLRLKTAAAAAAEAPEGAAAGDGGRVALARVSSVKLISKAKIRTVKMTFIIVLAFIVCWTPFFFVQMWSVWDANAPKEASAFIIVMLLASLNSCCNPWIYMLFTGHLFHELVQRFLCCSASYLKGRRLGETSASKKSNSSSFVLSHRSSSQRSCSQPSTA
Test: Oxytocin receptor (OTR) antagonist assay (FLIPR calcium, CHEM-1-hOTR cells)
Experimental: This assay was performed in CHEM-1 cells expressing the human Oxytocin Receptor (hOTR) to determine the inhibitory effect of the compounds of the invention on the human Oxytocin receptor. Oxytocin evokes an increase in intracellular calcium in CHEM-1-hOTR cells which is measured in a fluorescence assay on the FLIPR^TETRA using calcium sensitive dyes. […] CHEM-1-hOTR ready was used to assay frozen cells (Eurofins #HTS09ORTA) which are supplied with a proprietary Media Component. […]
pIC50: −log10 of the molar value.
Below, each of the molecules is paired with its reported pIC50 value.

Identify the reported pIC50 for the following entry. Cc1nccnc1N1CC2(CN(C(=O)N3c4ccc(Cl)cc4OCC3C)C2)C1 (single isomer, unassigned) [20-10-A]
6.30 to 7.00

* * *

Below, each of the molecules is paired with its reported efflux ratio at 1 h, 10 μM value.
Test: Wild-type MDCK permeability and efflux assay (Papp, efflux ratio)
Format: in vitro ADME
Details: dog, pH 7.4; Papp B>A/Papp A>B, wild-type MDCK cells; read-out: ER WT (Efflux Ratio)
Method: The MDR1-MDCK effective efflux assay was performed as described in the BioFocus Standard Operating Procedure, ADME-SOP-56. […] Incubations were performed at 37° C., with samples removed from both donor and acceptor chambers at T=0 and 1 hour and compound analysed by mass spectrometry (LC-MS/MS) including an analytical internal standard. […] Efflux ratios (Papp B>A/Papp A>B) were calculated for each compound from the mean Papp values in each direction for both wild-type and MDR1-MDCK cells. […]

Consider the worked cases shown below.
In [3]: df
Out[3]:
                                   molecule               quantity_name  observed_value
0  Cc1nccc(N2CC3(CN(C(=O)N4c5ccc(Cl)cc5OCC4C)C3)C2)n1 (stereo not shown)  efflux ratio at 1 h, 10 μM             < 1
1  O=C(N1CC2(C1)CN(c1cnccn1)C2)N1CCC(O)c2cc(Cl)ccc21 (single isomer, unassigned)  efflux ratio at 1 h, 10 μM          1 to 2
2  CC1COc2cc(Cl)ccc2N1C(=O)N1CC2(C1)CN(c1cccnn1)C2 (single isomer, unassigned)  efflux ratio at 1 h, 10 μM          1 to 2

--- query ---
Identify the reported efflux ratio at 1 h, 10 μM for the following entry. CC1COc2cc(Cl)ccc2N1C(=O)N1CC2(C1)CN(c1noc3cccnc13)C2 (single isomer, unassigned) [18-3-B]
< 1

* * *

Target: human Arginine Vasopressin Receptor V2 (AVPR2) (Homo sapiens)
Sequence (P30518 whole entry): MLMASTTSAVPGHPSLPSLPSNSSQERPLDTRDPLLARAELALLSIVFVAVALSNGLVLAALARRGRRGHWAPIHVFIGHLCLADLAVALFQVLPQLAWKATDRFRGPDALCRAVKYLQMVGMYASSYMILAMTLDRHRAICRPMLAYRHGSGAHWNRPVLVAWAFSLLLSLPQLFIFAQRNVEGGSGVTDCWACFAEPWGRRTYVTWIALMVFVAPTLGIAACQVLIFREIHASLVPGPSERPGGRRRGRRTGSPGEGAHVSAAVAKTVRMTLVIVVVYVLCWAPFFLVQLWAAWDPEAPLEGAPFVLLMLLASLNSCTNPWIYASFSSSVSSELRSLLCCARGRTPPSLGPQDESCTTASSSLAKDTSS
Experiment: Vasopressin V2 receptor antagonist assay (TR-FRET cAMP, 1321N1 cells)
Below, each of the compounds is paired with its reported IC50 value.

Identify the reported IC50 for the following entry. Cc1cc(N2CC3(CN(C(=O)N4c5ccc(Cl)cc5OCC4C)C3)C2)ncn1 (stereo not shown)
500 to 1000 nM

Identify the reported IC50 for the following entry. CC1COc2cc(F)ccc2N1C(=O)N1CC2(C1)CN(c1noc3ccccc13)C2 (single isomer, unassigned) [4-3-B]
500 to 1000 nM

Identify the reported IC50 for the following entry. Cc1nc(N2CC3(CN(C(=O)N4c5ccc(Cl)cc5OCC4C)C3)C2)ncc1F (single isomer, unassigned) [20-7-B]
< 100 nM

Identify the reported IC50 for the following entry. CC1COc2cc(Cl)ccc2N1C(=O)N1CC2(C1)CN(c1cccnn1)C2 (stereo not shown) [9-1]
≥ 1000 nM

* * *

Molecular target: MDR1 (P-glycoprotein) (Homo sapiens)
Construct: host or cells: MDCK (MDR1-MDCK; wild-type MDCK as comparator)
Test: MDR1-MDCK permeability and efflux assay (Papp, efflux ratio, effective efflux ratio)
Type: in vitro ADME
Conditions: dog, MDCK-MDR1, pH 7.4, Papp B>A/Papp A>B, MDR1-MDCK cells; read-out: ER MDR1 (Efflux Ratio)
Below, each of the molecules is paired with its reported efflux ratio at 1 h, 10 μM value.

>>> df
                                   molecule                     target_under_test               quantity_name  observed_value
0  COc1ccnc(N2CC3(CN(C(=O)N4c5ccc(Cl)cc5OCC4C)C3)C2)n1 (single isomer, unassigned) [20-9-B]  MDR1 (P-glycoprotein) (Homo sapiens)  efflux ratio at 1 h, 10 μM          1 to 2
1  O=C(N1CC2(C1)CN(c1ccc(F)cn1)C2)N1CCc2cc(Cl)ccc21  MDR1 (P-glycoprotein) (Homo sapiens)  efflux ratio at 1 h, 10 μM             < 1
2  O=C(N1CC2(C1)CN(c1ccc(F)cn1)C2)N1CCC(O)c2cc(Cl)ccc21 (stereo not shown) [13-1]  MDR1 (P-glycoprotein) (Homo sapiens)  efflux ratio at 1 h, 10 μM             > 3

--- query ---
Identify the reported efflux ratio at 1 h, 10 μM for the following entry. CC1COc2cc(F)c(F)cc2N1C(=O)N1CC2(C1)CN(c1ccc(F)cn1)C2 (stereo not shown)
1 to 2
